The binders listed here are annotated with their pKd.
- ASSAYED TARGET: T1, PUF4 RNA-binding domain (Saccharomyces cerevisiae, UniProt P25339 537-888)
- T1 sequence: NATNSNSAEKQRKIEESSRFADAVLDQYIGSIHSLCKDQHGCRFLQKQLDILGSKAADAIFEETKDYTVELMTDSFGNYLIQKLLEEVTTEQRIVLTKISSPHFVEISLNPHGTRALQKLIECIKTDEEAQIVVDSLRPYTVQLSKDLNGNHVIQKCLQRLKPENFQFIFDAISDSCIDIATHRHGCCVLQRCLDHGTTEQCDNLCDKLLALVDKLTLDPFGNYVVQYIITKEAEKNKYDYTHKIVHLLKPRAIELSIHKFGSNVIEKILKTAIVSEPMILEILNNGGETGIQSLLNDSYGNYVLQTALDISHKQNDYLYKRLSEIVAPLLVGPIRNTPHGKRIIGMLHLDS
- PROCEDURE TEXT: Mg; RNA-MaP; 20 mM Na-HEPES pH 7.4, 30 mM KOAc, 0.75 mM MgCl2, 0.1% Tween-20, 5% glycerol, 0.1 mg/mL BSA, 2 mM DTT; 25 C; 0.0125-409.6 nM protein
- CONDITION NOTES: tags: N-His6-TEV cleaved; C-SNAP kept, Cy3B-labelled; label: tethered on chip by stalled RNA polymerase
pKd: −log10 of the molar value.
ASSAY READOUT: pKd

binder="UCUCUUUGUUUAUAUUAUCUCUU (ssRNA) [Ie_S1_P4E.1_K4.1_C4.1_H4.1_[+2TT]_A4.1_F4.1_T4.1]" assay_readout=pKd measured_value=7.22
binder="Id_ii_S2_P4E.2_K4.1_C4.2_[C-2T]_[T-1C]_H4.1_A4.1_F4.1_T4.2_[G10A]_[T11A] (ssRNA) RNA: UUUGAUUAAUAUGAUAUCGUUCUUUCUUCUGUAUAUUAAAUUCUUUCUCGAUAUCAUAUUAAUCUUU" assay_readout=pKd measured_value=9.32
binder="Id_ii_S4_P3E.2_K3.1_C3.2_H3.1_A3.1_F3.1_T3.2_[A10T] (ssRNA) RNA: UUUGACAACUGAUCGUUCUUUCUCUUGUAUAUAUUUUCUUUCUCGAUCAGUUGUCUUU" assay_readout=pKd measured_value=8.94
binder="Id_ii_S2_P5E.4_K5.3_C5.2_[C-2G]_H5.3_A5.1_F5.1_T5.2 (ssRNA) RNA: UUUGAUUAAUAUGAUAUCGUUCUUUCUGUACACUUAUUAUAUUCUUUCUCGAUAUCAUAUUAAUCUUU" assay_readout=pKd measured_value=8.66
binder="Id_ii_S2_P3E.2_K3.1_C3.2_[C-2G]_H3.1_A3.1_F3.1_T3.2_[T9A]_[A10G] (ssRNA) RNA: UUUGAUUAAUAUGAUAUCGUUCUUUCUGUUGUAUAUAAGUUCUUUCUCGAUAUCAUAUUAAUCUUU" assay_readout=pKd measured_value=8.10
binder="UCUCUUCCUAUAUAUUAAGUCUCUU (ssRNA) [Id_ii_S1_P4E.3_K4.2_C4.2_[T-1C]_H4.2_A4.1_F4.1_T4.2_[G10A]_[T11G]]" assay_readout=pKd measured_value=7.06
